- assay.summary: Metabolic stability in liver microsomes
- Format: in vitro ADME, human
- applied.conditions: human, liver microsomes; 1 μM test compound, 37° C.
The entries below come with measured half-life at 1 μM values attached.
attribute.measured: half-life at 1 μM (min)

molecule=C[C@@H](C(=O)Nc1ccnc(-c2cnc(N3CC(C(F)(F)F)C3)nc2)n1)n1cnc2c1c(=O)n(C)c(=O)n2C readout_qualifier=> value_observed=60
molecule=C[C@H](C(=O)Nc1ccnc(-c2cnc(N3CCC[C@@H]3C)nc2)n1)n1cnc2c1c(=O)n(C)c(=O)n2C readout_qualifier== value_observed=26
molecule=C[C@H]1CCCCN1c1ncc(-c2nccc(NC(=O)Cn3cnc4c3c(=O)n(C)c(=O)n4C)n2)cn1 readout_qualifier== value_observed=8
molecule="C[C@@H](C(=O)Nc1ccnc(-c2cnc(N3CC4CC4C3)nc2)n1)n1cnc2c1c(=O)n(C)c(=O)n2C (stereo partly shown)" readout_qualifier== value_observed=88.8
molecule="CC(C(=O)Nc1ccnc(-c2cnc(N3CCCC[C@@H]3C)nc2)n1)n1cnc2c1c(=O)n(C)c(=O)n2C (stereo partly shown)" readout_qualifier== value_observed=4
molecule=C[C@@H](C(=O)Nc1ccnc(-c2cnc(N3CCC[C@H]3C(F)(F)F)nc2)n1)n1cnc2[nH]c(=O)n(C)c(=O)c21 readout_qualifier== value_observed=37.8
molecule=C[C@@H](C(=O)Nc1ccnc(-c2cnc(N3CCCC3(C)C)nc2)n1)n1cnc2c1c(=O)n(C)c(=O)n2C readout_qualifier== value_observed=9
molecule="C[C@@H](C(=O)Nc1ccnc(-c2cnc(N3CCC(C(F)(F)F)C3)nc2)n1)n1cnc2c1c(=O)n(C)c(=O)n2C (stereo partly shown)" readout_qualifier== value_observed=52.4
molecule=[2H]C([2H])([2H])n1c(=O)n(C)c(=O)c2c1ncn2CC(=O)Nc1ccnc(-c2cnc(N3CCC[C@@H]3C)nc2)n1 readout_qualifier== value_observed=43
molecule=Cn1c(=O)c2c(ncn2CC(=O)Nc2ccnc(-c3cnc(N4CCCC4(C)C)nc3)n2)n(C)c1=O readout_qualifier== value_observed=12
molecule=Cn1c(=O)c2c(ncn2CC(=O)Nc2ccnc(-c3cnc(N4CCC(F)(F)CC4)nc3)n2)n(C)c1=O readout_qualifier== value_observed=38.4
molecule=C[C@@H](C(=O)Nc1ccnc(-c2cnc(N3CCC[C@H]3C(F)(F)F)nc2)n1)n1cnc2c1c(=O)n(C)c(=O)n2C(F)F readout_qualifier== value_observed=27.4
molecule=C[C@H]1CCCN1c1ncc(-c2nccc(NC(=O)[C@H](C)n3cnc4c3c(=O)n(C)c(=O)n4C)n2)cn1 readout_qualifier== value_observed=30
molecule=C[C@@H](C(=O)Nc1ccnc(-c2cnc(N3CCC[C@@H]3C(F)(F)F)nc2)n1)n1cnc2c1c(=O)n(C)c(=O)n2C readout_qualifier== value_observed=19.8
molecule=C[C@H]1CCCN1c1ncc(-c2nccc(NC(=O)Cn3cnc4c3c(=O)n(C)c(=O)n4C)n2)cn1 readout_qualifier== value_observed=50
molecule=C[C@@H](C(=O)Nc1ccnc(-c2cnc(N3CCC[C@H]3C(F)(F)F)nc2)n1)n1cnc2c1c(=O)n(C)c(=O)n2C readout_qualifier== value_observed=43

* * *

- assay.summary: in vitro
- applied.conditions: cynomolgus monkey, plasma
attribute.measured: fraction unbound at 6 h, 1 μM

compound="CC(=O)CC(c1ccccc1)c1c(O)c2ccccc2oc1=O (stereo not shown) [Warfarin, reference compound]" attribute_measured="fraction unbound at 6 h, 1 μM" value_observed=0.011

* * *

- assay.summary: PK comparison of capsule and suspension formulations
- applied.conditions: monkey, in vivo, po, 250 mg, Capsule (fasted), monkeys
attribute.measured: bioavailability (%)

compound="C[C@@H](C(=O)Nc1ccnc(-c2cnc(N3CCC[C@H]3C(F)(F)F)nc2)n1)n1cnc2c1c(=O)n(C)c(=O)n2C [Compound 2]" attribute_measured=bioavailability value_observed=13

* * *

- assay.summary: Solubility in simulated gastrointestinal fluid (SGF)
- Assay type: physicochemical
- applied.conditions: simulated gastric fluid, thermodynamic from solid, HCl 0.1N at 25° C.
attribute.measured: solubility at 30 h (µg/mL)

molecular_string=C[C@@H](C(=O)Nc1ccnc(-c2cnc(N3CCC[C@H]3C(F)(F)F)nc2)n1)n1cnc2c1c(=O)n(C)c(=O)n2C value_observed=1050

* * *

The entries below come with measured solubility kinetic at 24 h values attached.
- assay.summary: Kinetic solubility in buffered solutions
- Assay type: physicochemical
- applied.conditions: sodium bicarbonate buffer, aqueous buffer, kinetic from dmso stock; pH 9.0, 50 mM sodium bicarbonate, 24 hours ambient; read-out: pH 9.0 solubility
attribute.measured: solubility kinetic at 24 h (µg/mL)

compound="C[C@H]1CCCCN1c1ncc(-c2nccc(NC(=O)Cn3cnc4c3c(=O)n(C)c(=O)n4C)n2)cn1 [Compound 17]" attribute_measured="solubility kinetic at 24 h" scale_unit=µg/mL value_observed=9
compound="C[C@H]1CCCN1c1ncc(-c2nccc(NC(=O)[C@H](C)n3cnc4c3c(=O)n(C)c(=O)n4C)n2)cn1 [Compound 21]" attribute_measured="solubility kinetic at 24 h" scale_unit=µg/mL value_observed=10.5
compound="[2H]C([2H])([2H])n1c(=O)n(C)c(=O)c2c1ncn2CC(=O)Nc1ccnc(-c2cnc(N3CCC[C@@H]3C)nc2)n1 [Compound 25]" attribute_measured="solubility kinetic at 24 h" scale_unit=µg/mL value_observed=11
compound="Cn1c(=O)c2c(ncn2CC(=O)Nc2ccnc(-c3cnc(N4CCCC4(C)C)nc3)n2)n(C)c1=O [Compound 18]" attribute_measured="solubility kinetic at 24 h" scale_unit=µg/mL value_observed=17
compound="CC(C(=O)Nc1ccnc(-c2cnc(N3CCCC[C@@H]3C)nc2)n1)n1cnc2c1c(=O)n(C)c(=O)n2C (stereo partly drawn) [Compound 23]" attribute_measured="solubility kinetic at 24 h" scale_unit=µg/mL value_observed=14
compound="C[C@H]1CCCN1c1ncc(-c2nccc(NC(=O)Cn3cnc4c3c(=O)n(C)c(=O)n4C)n2)cn1 [Compound 19]" attribute_measured="solubility kinetic at 24 h" scale_unit=µg/mL value_observed=3.5
compound="C[C@H](C(=O)Nc1ccnc(-c2cnc(N3CCC[C@@H]3C)nc2)n1)n1cnc2c1c(=O)n(C)c(=O)n2C [Compound 22]" attribute_measured="solubility kinetic at 24 h" scale_unit=µg/mL value_observed=70
compound="C[C@@H](C(=O)Nc1ccnc(-c2cnc(N3CCC[C@H]3C(F)(F)F)nc2)n1)n1cnc2c1c(=O)n(C)c(=O)n2C [Compound 2]" attribute_measured="solubility kinetic at 24 h" scale_unit=µg/mL value_observed=69
compound="C[C@@H](C(=O)Nc1ccnc(-c2cnc(N3CCCC3(C)C)nc2)n1)n1cnc2c1c(=O)n(C)c(=O)n2C [Compound 1]" attribute_measured="solubility kinetic at 24 h" scale_unit=µg/mL value_observed=2

* * *

- assay.summary: Oral PK and bioavailability of micronized Compound 2 suspension
- Type: in vivo, dogs (beagles)
- applied.conditions: beagle, dog, plasma; fasted dogs, 10 mg/kg oral, micronized suspension
attribute.measured: bioavailability

molecule="C[C@@H](C(=O)Nc1ccnc(-c2cnc(N3CCC[C@H]3C(F)(F)F)nc2)n1)n1cnc2c1c(=O)n(C)c(=O)n2C [Compound 2]" value_observed=36%

* * *

- target.or.test.system: human TRPA1 (hTRPA1) (Homo sapiens)
- Construct: expressed in transfected cells
- Sequence (O75762 whole entry): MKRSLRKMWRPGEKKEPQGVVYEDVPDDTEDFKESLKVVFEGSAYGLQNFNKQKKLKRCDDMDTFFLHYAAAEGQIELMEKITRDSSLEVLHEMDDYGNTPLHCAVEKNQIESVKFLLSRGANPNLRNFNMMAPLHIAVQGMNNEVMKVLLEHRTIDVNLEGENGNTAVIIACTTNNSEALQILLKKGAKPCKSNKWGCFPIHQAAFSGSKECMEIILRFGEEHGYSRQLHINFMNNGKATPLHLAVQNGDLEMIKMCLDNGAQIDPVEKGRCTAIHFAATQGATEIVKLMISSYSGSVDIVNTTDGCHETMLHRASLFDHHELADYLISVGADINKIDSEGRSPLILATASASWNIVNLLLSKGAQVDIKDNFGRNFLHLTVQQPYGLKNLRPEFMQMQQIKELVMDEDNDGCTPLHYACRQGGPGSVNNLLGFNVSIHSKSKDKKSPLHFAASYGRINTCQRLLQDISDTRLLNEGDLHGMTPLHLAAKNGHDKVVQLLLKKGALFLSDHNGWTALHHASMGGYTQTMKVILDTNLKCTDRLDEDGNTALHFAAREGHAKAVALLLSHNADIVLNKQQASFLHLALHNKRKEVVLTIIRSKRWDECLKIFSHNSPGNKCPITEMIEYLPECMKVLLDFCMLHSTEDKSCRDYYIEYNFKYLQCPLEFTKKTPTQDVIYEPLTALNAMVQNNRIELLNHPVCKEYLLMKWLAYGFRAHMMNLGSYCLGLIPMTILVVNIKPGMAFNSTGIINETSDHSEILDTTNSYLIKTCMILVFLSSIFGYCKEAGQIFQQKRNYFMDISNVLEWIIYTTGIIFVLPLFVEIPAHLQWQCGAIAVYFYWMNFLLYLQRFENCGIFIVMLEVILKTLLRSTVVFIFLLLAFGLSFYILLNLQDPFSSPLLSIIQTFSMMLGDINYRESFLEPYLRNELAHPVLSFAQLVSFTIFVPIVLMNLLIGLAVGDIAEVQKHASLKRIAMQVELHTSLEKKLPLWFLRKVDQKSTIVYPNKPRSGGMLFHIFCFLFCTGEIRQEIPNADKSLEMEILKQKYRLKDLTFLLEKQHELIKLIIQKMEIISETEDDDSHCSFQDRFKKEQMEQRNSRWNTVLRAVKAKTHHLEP
- assay.summary: Inhibition of human TRPA1, whole-cell patch clamp
- Format: cell-based
- applied.conditions: antagonist effect, whole cell patch configuration; read-out: hTRPA1
pIC50: −log10 of the molar value.
attribute.measured: pIC50

compound=C[C@H](C(=O)Nc1ccnc(-c2cnc(N3CCC[C@@H]3C)nc2)n1)n1cnc2c1c(=O)n(C)c(=O)n2C readout_qualifier=< value_observed=5.49
compound=C[C@H]1CCCCN1c1ncc(-c2nccc(NC(=O)Cn3cnc4c3c(=O)n(C)c(=O)n4C)n2)cn1 readout_qualifier== value_observed=7.39
compound="Cn1c(=O)c2c(ncn2CC(=O)Nc2ccnc(-c3cnc(N4CC5CC5C4)nc3)n2)n(C)c1=O (stereo not shown)" readout_qualifier== value_observed=7.03
compound=Cn1c(=O)c2c(ncn2CC(=O)Nc2ccnc(-c3cnc(N4CC(C(F)(F)F)C4)nc3)n2)n(C)c1=O readout_qualifier== value_observed=6.41
compound=Cn1c(=O)c2c(ncn2CC(=O)Nc2ccnc(-c3cnc(N4CCC(F)(F)CC4)nc3)n2)n(C)c1=O readout_qualifier== value_observed=7.14
compound=C[C@@H](C(=O)Nc1ccnc(-c2cnc(N3CCC[C@H]3C(F)(F)F)nc2)n1)n1cnc2c1c(=O)n(C)c(=O)n2C readout_qualifier== value_observed=8.16
compound="C[C@@H](C(=O)Nc1ccnc(-c2cnc(N3CCC(C(F)(F)F)C3)nc2)n1)n1cnc2c1c(=O)n(C)c(=O)n2C (stereo partly shown)" readout_qualifier== value_observed=7.60

* * *

- target.or.test.system: human TRPA1 (hTRPA1) (Homo sapiens)
- Construct: expressed in transfected cells
- assay.summary: Inhibition of human TRPA1, whole-cell patch clamp
- Format: cell-based
- applied.conditions: hTRPA1, 10 μM AITC; read-out: IC50 Inward current
pIC50: −log10 of the molar value.
attribute.measured: pIC50

molecular_string=C[C@@H](C(=O)Nc1ccnc(-c2cnc(N3CCC[C@H]3C(F)(F)F)nc2)n1)n1cnc2c1c(=O)n(C)c(=O)n2C value_observed=8.16
